assay-system: PD-L1 (Homo sapiens, UniProt Q9NZQ7)
Construct: determine if they can specifically dimerize the extracellular domains of PD-L1
Sequence (Q9NZQ7 19-238 limits assumed): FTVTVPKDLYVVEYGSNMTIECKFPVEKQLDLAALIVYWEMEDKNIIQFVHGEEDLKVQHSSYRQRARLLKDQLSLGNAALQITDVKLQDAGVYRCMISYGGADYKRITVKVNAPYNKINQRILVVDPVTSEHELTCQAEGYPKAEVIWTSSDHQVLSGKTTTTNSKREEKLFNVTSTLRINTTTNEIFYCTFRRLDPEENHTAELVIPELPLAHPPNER
Sequence (Q9NZQ7 19-238 limits assumed): as above
assay-info: PD-L1/PD-L1 dimerization biochemical protein-protein interaction assay (ALPHA)
Format: binding
condition-parameters: compound-induced PD-L1 dimerization, head prints '1 nM' (0.5 nM His-tagged PD-L1 and 0.5 nM FLAG-tagged PD-L1), read-out: AC50 PDL1 Dimer Alpha 1 nM
measurement-kind: AC50 (nM)

| compound | AC50, nM |
| --- | --- |
| COc1nc(O[C@H]2CCc3c(-c4cccc(-c5ccc(C6=N[C@@H](C)CN6)c(OC)n5)c4Cl)cccc32)c(Br)cc1CN[C@@](C)(CO)C(=O)O [Example 781] | 23.3 |
| COc1nc(-c2cccc(-c3cccc4c3CC[C@@H]4Oc3nc(OCc4cncc(C#N)c4)c(CN[C@@](C)(CO)C(=O)O)cc3Cl)c2Cl)ccc1C1=NCCN1 [Example 745] | 19.2 |
| Cc1c(COc2cc(OCc3cncc(C#N)c3)c(CNC[C@@H](O)CC(=O)O)cc2Cl)cccc1-c1cccc(NC(=O)c2ccc(CNC[C@@H](O)CC(=O)O)cn2)c1C [Example 346] | 181 |
| COc1cc(-c2cccc(-c3cccc(COc4cc(OCc5cncc(C#N)c5)c(CNC[C@@H](O)CC(=O)O)cc4Cl)c3C)c2C)ccc1CN [Example 507] | 262 |
| COc1cc(-c2cccc(-c3cccc(COc4nc(OC)c(CN5CC6(C5)CN(C(C)=O)C6)cc4Br)c3Cl)c2Cl)ccc1CN1CC2(C1)CN(C(C)=O)C2 [Example 425] | 226 |
| C[C@@](CO)(NCc1cc(Br)c(O[C@H]2CCc3c(-c4cccc(-c5ccc(OCCNCCO)cc5)c4Cl)cccc32)nc1OCc1cncc(C#N)c1)C(=O)O [Example 663] | 6.56 |
| COc1nc(C(=O)Nc2cccc(-c3cccc(-c4ccc(CNC[C@@H]5CCC(=O)N5)c(OC)n4)c3Cl)c2Cl)ccc1CNC[C@@H]1CCC(=O)N1 [Example 429] | 240 |
| Cc1c(COc2cc(OCc3cncc(C#N)c3)c(CN[C@@](C)(CO)C(=O)O)cc2Cl)cccc1-c1cccc(Nc2nccc3cc(CNCCO)cnc23)c1C [Example 557] | 137 |

[I] Cc1c(COc2cc(OCc3cncc(C#N)c3)c(CN[C@@](C)(CO)C(=O)O)cc2Cl)cccc1-c1cccc(-c2ccc(CNC3CNC(=O)C3)cc2)c1C (stereo partly drawn) [Example 363]
[II] COc1nc(-c2ccc(-c3cccc(-c4ccc(CNC[C@@H]5CCC(=O)N5)c(OC)n4)c3Cl)s2)ccc1CNC[C@@H]1CCC(=O)N1 [Example 601]
[III] Cc1c(COc2cc(OCc3cncc(C#N)c3)c(CN[C@@](C)(CO)C(=O)O)cc2Cl)cccc1-c1cccc(-c2nnc(CCN)o2)c1C [Example 329]
Q: Place the items in sequence of falling AC50. Use the labels to give the requested order.
Result: II, III, I
